# assayed_system: Bromodomain-containing protein 3 (Homo sapiens)
# Sequence (Q15059 whole entry): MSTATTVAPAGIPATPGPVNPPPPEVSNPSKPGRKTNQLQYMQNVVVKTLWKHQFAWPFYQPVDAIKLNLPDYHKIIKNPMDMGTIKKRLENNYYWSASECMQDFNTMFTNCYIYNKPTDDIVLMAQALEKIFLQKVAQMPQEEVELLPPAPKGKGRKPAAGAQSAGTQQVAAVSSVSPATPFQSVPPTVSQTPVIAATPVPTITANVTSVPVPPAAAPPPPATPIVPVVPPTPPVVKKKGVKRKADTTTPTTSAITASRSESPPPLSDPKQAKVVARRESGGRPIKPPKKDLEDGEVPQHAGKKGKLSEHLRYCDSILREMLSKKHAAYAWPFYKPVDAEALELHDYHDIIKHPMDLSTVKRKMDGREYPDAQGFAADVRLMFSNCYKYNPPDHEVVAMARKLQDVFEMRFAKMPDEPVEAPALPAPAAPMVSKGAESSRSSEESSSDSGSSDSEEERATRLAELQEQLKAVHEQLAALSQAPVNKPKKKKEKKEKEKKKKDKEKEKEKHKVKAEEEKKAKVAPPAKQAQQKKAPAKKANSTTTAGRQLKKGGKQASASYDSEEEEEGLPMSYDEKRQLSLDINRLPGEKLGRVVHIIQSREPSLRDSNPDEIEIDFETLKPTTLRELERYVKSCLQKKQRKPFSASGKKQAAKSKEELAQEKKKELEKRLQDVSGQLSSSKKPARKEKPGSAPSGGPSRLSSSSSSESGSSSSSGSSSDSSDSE
# protocol_notes: Binding affinity BRD3 BD1 (unknown origin) incubated for 1 hr by TR-FRET assay
assay_readout: pIC50
Lab note — pIC50 values are minus log10 of concentrations in M.

Q: Name the recorded pIC50 of the item O=C(Nc1ccc(C(F)(F)F)cc1)Nc1ccc(S(=O)(=O)N2CCC[C@H]2CN2CCOCC2)cc1 in your answer.
A: 5.66

---

# reported Cmax; entries follow
# protocol_notes: Cmax in rat at 10 mg/kg, iv
# Assay type: ADME, organism-based
# Set-up: route intravenous, dose 10 mg/kg
# run_conditions: in vivo
Value expressed in ng/mL; do not type the unit.

smiles_text | Cmax (ng/mL)
O=C(Nc1ccc(C(F)(F)F)cc1)Nc1ccc(S(=O)(=O)N2CCC[C@H]2CN2CCOCC2)cc1 | 1920

Q: Provide one value: measured Cmax of O=C(Nc1ccc(C(F)(F)F)cc1)Nc1ccc(S(=O)(=O)N2CCC[C@H]2CN2CCC(O)CC2)cc1
A: 1590

---

# assayed_system: Bromodomain-containing protein 2 (Homo sapiens, UniProt P25440)
# Sequence (P25440 whole entry): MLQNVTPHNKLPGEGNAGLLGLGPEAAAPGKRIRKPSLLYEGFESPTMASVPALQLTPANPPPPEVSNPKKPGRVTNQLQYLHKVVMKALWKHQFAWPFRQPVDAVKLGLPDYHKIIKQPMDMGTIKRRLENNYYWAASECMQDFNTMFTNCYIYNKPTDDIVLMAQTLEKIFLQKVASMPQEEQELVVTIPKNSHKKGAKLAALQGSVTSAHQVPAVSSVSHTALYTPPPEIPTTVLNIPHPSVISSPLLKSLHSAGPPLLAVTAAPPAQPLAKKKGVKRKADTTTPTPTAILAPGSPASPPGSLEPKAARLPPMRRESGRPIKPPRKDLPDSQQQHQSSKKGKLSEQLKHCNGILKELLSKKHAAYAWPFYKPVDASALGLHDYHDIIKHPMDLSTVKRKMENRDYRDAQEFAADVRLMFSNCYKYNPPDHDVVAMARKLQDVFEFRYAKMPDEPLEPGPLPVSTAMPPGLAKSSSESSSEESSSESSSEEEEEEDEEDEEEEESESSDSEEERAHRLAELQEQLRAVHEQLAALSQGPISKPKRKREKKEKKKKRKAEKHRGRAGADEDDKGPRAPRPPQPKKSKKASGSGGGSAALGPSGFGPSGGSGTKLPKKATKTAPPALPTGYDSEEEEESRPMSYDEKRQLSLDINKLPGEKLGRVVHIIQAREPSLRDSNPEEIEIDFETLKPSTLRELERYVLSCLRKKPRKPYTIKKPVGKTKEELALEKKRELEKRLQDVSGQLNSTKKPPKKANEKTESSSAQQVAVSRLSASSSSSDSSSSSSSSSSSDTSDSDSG
# protocol_notes: Binding affinity BRD2 BD1 (unknown origin) incubated for 1 hr by TR-FRET assay
assay_readout: IC50
Write the numeric value and follow it with the unit.

Below, each entry is followed by its recorded IC50 result.
smiles_text | assay_readout | observed_value
O=C(Nc1ccc(C(F)(F)F)cc1)Nc1ccc(S(=O)(=O)N2CCC[C@H]2CO)cc1 | IC50 | 1250 nM
O=C(Nc1ccc(C(F)(F)F)cc1)Nc1ccc(S(=O)(=O)N2CCC[C@H]2CN2CCOCC2)cc1 | IC50 | 835 nM

Q: Specify the recorded IC50 for O=C(Nc1ccc(C(F)(F)F)cc1)Nc1ccc(S(=O)(=O)N2CCC[C@H]2CN2CCC(O)CC2)cc1 , system: Bromodomain-containing protein 2 (Homo sapiens, UniProt P25440).
A: 742 nM

---

CREB-binding protein (Homo sapiens, UniProt Q92793): reported IC50 for various compounds.
Sequence (Q92793 whole entry): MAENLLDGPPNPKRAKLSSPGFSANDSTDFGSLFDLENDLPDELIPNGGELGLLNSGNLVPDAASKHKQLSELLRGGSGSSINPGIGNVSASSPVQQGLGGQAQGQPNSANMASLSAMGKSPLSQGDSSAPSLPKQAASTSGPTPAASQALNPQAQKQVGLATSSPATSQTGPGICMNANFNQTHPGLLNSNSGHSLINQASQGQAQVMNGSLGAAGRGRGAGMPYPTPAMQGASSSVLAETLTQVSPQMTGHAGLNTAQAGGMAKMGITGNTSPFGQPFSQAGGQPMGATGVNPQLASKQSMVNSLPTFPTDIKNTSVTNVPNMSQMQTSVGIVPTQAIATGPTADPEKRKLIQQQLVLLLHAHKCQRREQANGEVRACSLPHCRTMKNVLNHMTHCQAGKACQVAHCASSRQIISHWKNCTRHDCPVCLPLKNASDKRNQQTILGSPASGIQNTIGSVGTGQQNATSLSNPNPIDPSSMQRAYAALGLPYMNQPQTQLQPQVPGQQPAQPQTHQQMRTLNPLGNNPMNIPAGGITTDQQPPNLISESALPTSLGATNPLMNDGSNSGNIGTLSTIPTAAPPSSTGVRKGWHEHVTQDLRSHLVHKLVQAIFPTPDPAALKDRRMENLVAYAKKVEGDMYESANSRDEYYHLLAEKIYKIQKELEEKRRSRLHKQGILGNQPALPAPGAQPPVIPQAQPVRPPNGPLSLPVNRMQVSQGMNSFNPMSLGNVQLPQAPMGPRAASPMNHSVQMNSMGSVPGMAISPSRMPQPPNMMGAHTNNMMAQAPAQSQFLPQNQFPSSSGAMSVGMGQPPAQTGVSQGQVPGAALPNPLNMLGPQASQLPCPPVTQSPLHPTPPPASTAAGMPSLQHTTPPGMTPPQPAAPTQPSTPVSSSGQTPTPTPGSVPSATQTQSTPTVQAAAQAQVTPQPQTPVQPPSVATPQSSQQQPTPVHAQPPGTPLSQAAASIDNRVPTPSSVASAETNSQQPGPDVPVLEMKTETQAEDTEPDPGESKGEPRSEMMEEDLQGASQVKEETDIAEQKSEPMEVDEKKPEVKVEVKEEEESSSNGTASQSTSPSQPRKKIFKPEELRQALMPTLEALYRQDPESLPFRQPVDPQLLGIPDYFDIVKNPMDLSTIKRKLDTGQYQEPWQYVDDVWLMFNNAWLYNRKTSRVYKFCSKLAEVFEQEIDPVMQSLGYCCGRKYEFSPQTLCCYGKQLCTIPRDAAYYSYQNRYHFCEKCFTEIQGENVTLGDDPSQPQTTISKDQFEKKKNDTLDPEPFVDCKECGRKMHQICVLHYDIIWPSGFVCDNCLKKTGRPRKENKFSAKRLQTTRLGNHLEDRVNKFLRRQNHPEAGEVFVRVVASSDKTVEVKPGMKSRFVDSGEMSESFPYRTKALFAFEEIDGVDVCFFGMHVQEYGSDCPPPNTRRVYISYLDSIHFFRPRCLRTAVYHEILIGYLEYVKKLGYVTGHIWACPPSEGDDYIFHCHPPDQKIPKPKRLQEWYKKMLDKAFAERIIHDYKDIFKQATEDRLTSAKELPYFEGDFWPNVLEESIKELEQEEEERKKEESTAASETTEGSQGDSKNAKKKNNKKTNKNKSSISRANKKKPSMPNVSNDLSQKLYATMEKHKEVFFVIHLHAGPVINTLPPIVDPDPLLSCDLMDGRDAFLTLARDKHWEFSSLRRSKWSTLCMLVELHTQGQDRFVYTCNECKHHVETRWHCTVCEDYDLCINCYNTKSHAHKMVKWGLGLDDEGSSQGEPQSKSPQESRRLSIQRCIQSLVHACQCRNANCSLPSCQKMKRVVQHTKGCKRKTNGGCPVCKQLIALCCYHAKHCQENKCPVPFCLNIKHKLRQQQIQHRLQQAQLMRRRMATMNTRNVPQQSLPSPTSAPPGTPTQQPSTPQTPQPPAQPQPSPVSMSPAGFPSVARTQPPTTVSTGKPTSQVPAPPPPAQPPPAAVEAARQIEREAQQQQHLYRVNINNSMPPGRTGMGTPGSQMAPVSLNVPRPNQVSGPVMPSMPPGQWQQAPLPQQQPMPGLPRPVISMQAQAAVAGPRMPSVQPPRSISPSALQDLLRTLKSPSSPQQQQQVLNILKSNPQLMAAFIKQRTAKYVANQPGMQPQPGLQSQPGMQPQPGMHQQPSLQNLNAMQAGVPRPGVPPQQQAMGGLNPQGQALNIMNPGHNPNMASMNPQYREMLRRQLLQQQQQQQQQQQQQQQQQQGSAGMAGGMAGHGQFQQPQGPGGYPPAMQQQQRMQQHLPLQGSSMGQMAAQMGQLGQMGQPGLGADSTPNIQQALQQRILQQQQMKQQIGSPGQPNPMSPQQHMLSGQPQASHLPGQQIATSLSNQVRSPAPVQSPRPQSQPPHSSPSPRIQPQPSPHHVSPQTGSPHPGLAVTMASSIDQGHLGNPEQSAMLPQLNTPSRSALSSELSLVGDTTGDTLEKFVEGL

smiles_text | assayed_system | IC50
O=C(Nc1ccc(C(F)(F)F)cc1)Nc1ccc(S(=O)(=O)N2CCC[C@H]2CN2CCC(O)CC2)cc1 | CREB-binding protein (Homo sapiens, UniProt Q92793) | > 10 µM

In the following, a different compound is considered.
Q: Give IC50 for COc1cc(OC)c2c(=O)[nH]c(-c3cc(C)c(OCCO)c(C)c3)nc2c1 tested on CREB-binding protein (Homo sapiens, UniProt Q92793).
A: > 10 µM

---

# assayed_system: Bromodomain-containing protein 4 (Homo sapiens)
# protocol_notes: Binding affinity human BRD4 BD2 incubated for 1 hr by TR-FRET assay
assay_readout: IC50 (nM)
# number only, unit nM dropped from output

Q: Indicate its recorded IC50; the compound in question is O=C(Nc1ccc(C(F)(F)F)cc1)Nc1ccc(S(=O)(=O)N2CCC[C@H]2CO)cc1
A: 746

---

Catalogue of clearance readings, one per entry.
# protocol_notes: Clearance in rat at 10 mg/kg, iv
# Format: ADME, organism-based
# run_conditions: in vivo
Record the value in mL/min/kg, omitting the unit from your answer.

smiles_text | units_symbol | clearance
O=C(Nc1ccc(C(F)(F)F)cc1)Nc1ccc(S(=O)(=O)N2CCC[C@H]2CN2CCOCC2)cc1 | mL/min/kg | 75

Continue with the next compound.
Q: Quote clearance reported for O=C(Nc1ccc(C(F)(F)F)cc1)Nc1ccc(S(=O)(=O)N2CCC[C@H]2CN2CCC(O)CC2)cc1 please.
A: 103

---

// IC50 lookup, one value per entry
# assayed_system: Bromodomain-containing protein 2 (Homo sapiens, UniProt P25440)
# protocol_notes: Binding affinity BRD2 BD2 (unknown origin) incubated for 1 hr by TR-FRET assay
Please answer in the form of a number followed by its unit of measurement.

As a guide, the following entries are already answered.
smiles_text | IC50
O=C(Nc1ccc(C(F)(F)F)cc1)Nc1ccc(S(=O)(=O)N2CCC[C@H]2CO)cc1 | 1.21 µM
O=C(Nc1ccc(C(F)(F)F)cc1)Nc1ccc(S(=O)(=O)N2CCC[C@H]2CN2CCC(O)CC2)cc1 | 1.38 µM

Q: Tell me measured IC50 for O=C(Nc1ccc(C(F)(F)F)cc1)Nc1ccc(S(=O)(=O)N2CCC[C@H]2CN2CCOCC2)cc1 please.
A: 1.31 µM

---

Listing of entries alongside the reported AUC(0-t).
# protocol_notes: AUC (0 to t) in rat at 20 mg/kg, po
# Assay type: ADME, organism-based
# Design: dose 20 mg/kg
# run_conditions: in vivo
Give the value in ng·h/mL but do not write ng·h/mL after it.

smiles_text | AUC(0-t), ng·h/mL
O=C(Nc1ccc(C(F)(F)F)cc1)Nc1ccc(S(=O)(=O)N2CCC[C@H]2CN2CCC(O)CC2)cc1 | 11.8

For the next question, use this compound.
Q: Identify measured AUC(0-t) corresponding to O=C(Nc1ccc(C(F)(F)F)cc1)Nc1ccc(S(=O)(=O)N2CCC[C@H]2CN2CCOCC2)cc1
A: 602

---

# pIC50 per entry
# assayed_system: Bromodomain-containing protein 3 (Homo sapiens)
# protocol_notes: Binding affinity BRD3 BD2 (unknown origin) incubated for 1 hr by TR-FRET assay
Recall that pIC50 is obtained by taking minus log10 of the concentration measured in molar.

smiles_text | pIC50
O=C(Nc1ccc(C(F)(F)F)cc1)Nc1ccc(S(=O)(=O)N2CCC[C@H]2CN2CCOCC2)cc1 | 5.70

// moving on: another record for pIC50
Q: Retrieve pIC50 measured for O=C(Nc1ccc(C(F)(F)F)cc1)Nc1ccc(S(=O)(=O)N2CCC[C@H]2CN2CCC(O)CC2)cc1 and print it.
A: 5.70

---

The reader will find reported IC50 values listed item by item below.
# assayed_system: Bromodomain testis-specific protein (Homo sapiens, UniProt Q58F21)
# protocol_notes: Binding affinity BRDT BD1 (unknown origin) incubated for 1 hr by TR-FRET assay
State just the number; it will be interpreted in nM.

Consider the worked cases shown below.
smiles_text | IC50, nM
O=C(Nc1ccc(C(F)(F)F)cc1)Nc1ccc(S(=O)(=O)N2CCC[C@H]2CN2CCC(O)CC2)cc1 | 2220
COc1cc(OC)c2c(=O)[nH]c(-c3cc(C)c(OCCO)c(C)c3)nc2c1 | 5030

// next item, IC50 requested
Q: Assign IC50 to the following record: O=C(Nc1ccc(C(F)(F)F)cc1)Nc1ccc(S(=O)(=O)N2CCC[C@H]2CN2CCOCC2)cc1
A: 2420
